Numbers sourced from paper doi:10.1101/2025.11.26.690650.

Target: T1, TCV P38 (capsid protein, VSR) wild type (Turnip crinkle virus (pTCV cDNA), UniProt P06663 1-351)
T1 sequence: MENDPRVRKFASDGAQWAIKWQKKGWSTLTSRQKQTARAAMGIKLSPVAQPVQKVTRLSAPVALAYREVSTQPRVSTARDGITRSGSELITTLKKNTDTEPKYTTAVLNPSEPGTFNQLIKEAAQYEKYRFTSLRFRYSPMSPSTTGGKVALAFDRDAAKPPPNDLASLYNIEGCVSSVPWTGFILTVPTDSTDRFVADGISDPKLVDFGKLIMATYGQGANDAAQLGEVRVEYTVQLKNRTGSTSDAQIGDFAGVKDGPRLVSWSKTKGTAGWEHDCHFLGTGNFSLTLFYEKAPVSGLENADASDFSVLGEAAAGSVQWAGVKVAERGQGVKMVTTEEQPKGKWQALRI
Experiment: competition
Each entry below carries its recorded pKi.
# reply with the number alone; pKi is -log10 of concentration in mol/L

The following binders have reported results that may help.
>>> df
                                     binder  numeric_result
0  dsRNA_33 (dsRNA, 5'-phosphate) RNA 1: CUAAGAUGCUCGCUGCCAAUGAACGACCCUCCCUAA RNA 2: UUAGGGAGGGUCGUUCAUUGGCAGCGAGCAUCU           10.15
1  AtmiR168 (dsRNA, 5'-phosphate) RNA 1: UCGCUUGGUGCAGGUCGGGAA RNA 2: CCCGCCUUGCAUCAACUGAAU            9.02
2  siR gf698_21 (dsRNA, 5'-phosphate) RNA 1: UAGUUCAUCCAUGCCAUGUGU RNA 2: ACAUGGCAUGGAUGAACUAUA            9.15
3  siR gf698_24 (dsRNA, 5'-phosphate) RNA 1: UAGUUCAUCCAUGCCAUGUGUAAU RNA 2: UACACAUGGCAUGGAUGAACUAUA            9.48
4  siR gf698_22 (dsRNA, 5'-phosphate) RNA 1: UAGUUCAUCCAUGCCAUGUGUA RNA 2: CACAUGGCAUGGAUGAACUAUA            9.24

Read the next record carefully.
Per the record, AtmiR162 (dsRNA, 5'-phosphate) RNA 1: UCGAUAAACCUCUGCAUCCAG RNA 2: GGAGGCAGCGGUUCAUCGAUC has pKi of 9.30
